B1: LINE1-full (parent)
chain: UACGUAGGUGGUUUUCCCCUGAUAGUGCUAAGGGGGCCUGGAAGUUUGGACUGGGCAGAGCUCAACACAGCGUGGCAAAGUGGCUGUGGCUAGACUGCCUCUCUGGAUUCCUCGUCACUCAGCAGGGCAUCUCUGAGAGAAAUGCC

# Variants of: B1
# ASSAY PROTOCOL: self-cleavage, relative activity (ratio to wild type); higher = more cleavage; in vitro, sequencing; the parent is a self-cleaving ribozyme
MEASUREMENT NAME: self-cleavage

INSERT INTO assay_data (sequence_input, measurement_name, test_result) VALUES
  ('UACGUAGGUGGUUUUCCCCUGAUAGUGCUAAGGGGGCCUGGAAGUUCGGACUGGGCAGAGCUCAACACUGCGUGGCAAAGUGGCUGUGGCUAGACUGCCUCUCUGGAUUCCUCGUCACUCAGCAGGGCAUCUCUGAGAGAAAUGCC', 'self-cleavage', 0.06),
  ('UACGUAGGUGGUUUUCCCCUAAUAGUGCUAAGGGGGCCUGGAAGAUUGGACUGGGCAGAGCUCAACACAGCGUGGCAAAGUGGCUGUGGCUAGACUGCCUCUCUGGAUUCCUCGUCACUCAGCAGGGCAUCUCUGAGAGAAAUGCC', 'self-cleavage', 1.58),
  ('UACGUAGGUGGUUUUCCCCUGAUAGUGCUAAGGGGGCCUGGAAGUUUGGACUGGGCAGAACUCAUCACAGCGUGGCAAAGUGGCUGUGGCUAGACUGCCUCUCUGGAUUCCUCGUCACUCAGCAGGGCAUCUCUGAGAGAAAUGCC', 'self-cleavage', 0.05),
  ('UACGUAGGUGGUUUUCCCCUGAUAGUGCUAAGGGGACCUGGAAGUUUGGACUGGGCAGAGCUCAACACAGCGUGGCAAAGUGGCUGUGGCUAGACUGCCUCUCUGGAUUCCUCGUCACUCAGCAGGGCAUCUCUGAGGGAAAUGCC', 'self-cleavage', 1.53),
  ('UACGUAGGUGGUUUUCCCCUGAUAGUGCUAAGGGGGCCUGGAUGUUUGGACUGGGCAGAGCUCAACACAGCGUGGCAAAGUGGCUGUGGCUAGACUGCCACUCUGGAUUCCUCGUCACUCAGCAGGGCAUCUCUGAGAGAAAUGCC', 'self-cleavage', 0.84),
  ('UACGUAGGUGGUAUUCCCCUGAUAGUGCUAAGGGGGCCUGGAAGUUUGGACUGGGCAGAGCUCAACACAGCGUGGCAAAGUGGCUGAGGCUAGACUGCCUCUCUGGAUUCCUCGUCACUCAGCAGGGCAUCUCUGAGAGAAAUGCC', 'self-cleavage', 0.07),
  ('UACGUAGGUGGUUUUCCCCUGAUAGUGCUAAGGGGGCCUGGGAGUUUGGACUGGGCAGAGCUCAACACAGCGUGGCAAAGUGGCUGUGGCUAUACUGCCUCUCUGGAUUCCUCGUCACUCAGCAGGGCAUCUCUGAGAGAAAUGCC', 'self-cleavage', 0.05),
  ('UACGUAGGUGGUUUUCCCCUGAUAGUGCUAAGGGGGCCUGGAAGUUUGGACUGGGCAGAGCUCAACACCGCGUGGCAAAGUGGCUGUGGCUAGACUGCCUCUCUGGAUUCCUCGUCACUCGGCAGGGCAUCUCUGAGAGAAAUGCC', 'self-cleavage', 0.11),
  ('UACGUAGGUGGUUUUCCCCUGAUAGUGCUAAGGGGGCCUGGAAGUUUGGACUGGGCAGAGCUCAACACAGCGUGGCAAAGCGGCUGUGGCUAGACUGCCUCUCUGGAUUCCUCGUCACUCAGCAGGGCGUCUCUGAGAGAAAUGCC', 'self-cleavage', 1.56);
